target: Cyclin-dependent kinase 2/cyclin A (Homo sapiens) (UniProt P24941+P20248+P78396); conditions: at 1 µM
experimental endpoint: residual activity (%)
Field: numeric (%). Do not append units.

CO[C@H]1[C@@H](OC)C[C@H](C)[C@@H](OC)C2=CC(=O)C=C(NC(=O)/C(C)=C/C=C/[C@H](OC)[C@@H](OC(N)=O)/C(C)=C/[C@@H]1C)C2=O :: 138

Could you tell me which residual activity is on file for COc1ccc(OC)c2c(=S)c3ccccc3[nH]c12 ?
85

Tell me the measured residual activity of CC(=O)c1ccc(N2CCOCC2)cc1O , please.
103

Param item = CC(C)n1cnc2/c(=N/c3cccc(Cl)c3)nc(NCCO)[nH]c21 ; retrieve measured residual activity.
24

For O=C1Nc2cc(Br)ccc2/C1=C1/Nc2ccccc2/C1=N\O , what is its reported residual activity?
37

Which residual activity reading was recorded for the compound COc1cc2ncc(-c3ccccc3)nc2cc1OC ?
129

###

molecular target: Ephrin type-B receptor 2 (Homo sapiens); settings: at 1 µM
The compounds listed here are annotated with their residual activity.
# unit: % | format: bare number

Given the compound O=C1Nc2cc(Br)ccc2/C1=C1/Nc2ccccc2/C1=N\O , what is its reported residual activity?
33

What residual activity value was documented for this compound, CO[C@H]1[C@@H](OC)C[C@H](C)[C@@H](OC)C2=CC(=O)C=C(NC(=O)/C(C)=C/C=C/[C@H](OC)[C@@H](OC(N)=O)/C(C)=C/[C@@H]1C)C2=O ?
115

Dear colleague, I am looking for the recorded residual activity of the following compound: Cc1nc2cc3nc(-c4cccs4)cnc3cc2n1C
117

###

biological target: Protein kinase C beta type (Homo sapiens); settings: at 10 µM
experimental endpoint: residual activity (%)
Express it in %; write the number only.

COc1cc2ncnc(Nc3ccc(Oc4ccccc4)cc3)c2cc1OC :: 126
O=C(O)c1ccc2c3c1cccc3c(=O)n1c3ccccc3nc21 :: 113
Nc1nc(Nc2ccc(S(N)(=O)=O)cc2)nn1C(=S)Nc1c(F)cccc1F :: 38
Oc1c2ccccc2c2c3c(cccc13)N=N2 :: 104

Field: next molecule
Tell me the measured residual activity of Nc1ccc2ncnc(NCCc3ccc(Oc4ccccc4)cc3)c2c1 , please.
113

###

target: Protein kinase C gamma type (Homo sapiens) (UniProt P05129); conditions: at 1 µM
residual activity: recorded values
The reply should contain only the number, in %.

CCN(CC)CCCCN1c2ccccc2Oc2ccc(Cl)cc21 :: 117

Fill in the blank: the reported residual activity of NC(=O)c1ccc2[nH]c(-c3ccc(Oc4ccc(Cl)cc4)cc3)nc2c1 is ____.
90

Requested read-out: residual activity. Entry: COc1cc2ncnc(Nc3ccc(O)c(Br)c3)c2cc1OC
102

Which residual activity reading was recorded for the molecule Cc1ccc(NC2=CC(=O)c3sc(C)nc3C2=O)cc1 ?
102

Given the molecule Cc1ccc(S(=O)(=O)/C=C/C#N)cc1 , what is its reported residual activity?
99

Entry under review: COc1cccc(-c2cc(=O)c3ccccc3o2)c1N . Reported residual activity?
107

Given O=C1NC(=O)c2cc(Nc3ccc(F)cc3)c(Nc3ccc(F)cc3)cc21 , state its recorded residual activity.
111

Report residual activity for Cc1nc2cc3nc(-c4cccs4)cnc3cc2n1C please.
110

Item O=C1Nc2ccccc2/C1=C1/Nc2ccccc2/C1=N\OCCC(O)CO (stereo not drawn) has what recorded residual activity?
81

Form field: reported residual activity of Oc1n[nH]c2nnc(-c3c(-c4ccccc4)nn4ccccc34)cc12
96

What residual activity value was documented for this molecule, CN(C)c1ccc(/C=C2\C(=O)Nc3ccccc32)cc1 ?
113

# lookup: residual activity of O=C1Nc2cc(Br)ccc2/C1=C1/Nc2ccccc2/C1=N\O
101

Endpoint output: residual activity of O=C1NC(=O)c2c1c1c3ccccc3[nH]c1c1[nH]c3cc(Br)ccc3c21 . Value?
99

residual activity lookup needed for CO[C@H]1[C@@H](OC)C[C@H](C)[C@@H](OC)C2=CC(=O)C=C(NC(=O)/C(C)=C/C=C/[C@H](OC)[C@@H](OC(N)=O)/C(C)=C/[C@@H]1C)C2=O , thanks.
111

Would you kindly share the measured residual activity for O=Nc1c(-c2c(O)[nH]c3ccccc23)[nH]c2ccccc12 ?
92
